# assay.procedure: Acute toxicity LD50 i.p. (Mouse)
# experimental.parameters: in vivo, ip
# Experimental: The in vivo activity of representative compounds of the present invention was determined as set forth in Table I below by administration to mice in pharmaceutically effective amounts.
Recorded LD50 for the following compounds
Report the figure in mg/kg without appending any unit label.

Recorded LD50, per entry:
>>> number("CNC(=O)O[C@H]1C[C@@H]2[C@H](C)[C@H]3OC[C@@H]2[C@]1(C)O3")
739
>>> number("CNC(=O)O[C@@H]1C[C@@H]2[C@H](C)[C@H]3OC[C@@H]2[C@]1(C)O3")
800
>>> number("C[C@@H]1[C@H]2OC[C@H]3[C@@H]1C[C@@H](O)[C@@]3(C)O2")
406

Consider the compound `C[C@@H]1[C@H]2OC[C@H]3[C@@H]1C[C@H](O)[C@@]3(C)O2` and give its measured LD50.
920

Consider the compound `C[C@@H]1[C@H]2OC[C@H]3[C@@H]1CC(=O)[C@@]3(C)O2` and give its measured LD50.
1600

Consider the compound `CC(=O)O[C@H]1C[C@@H]2[C@H](C)[C@H]3OC[C@@H]2[C@]1(C)O3` and give its measured LD50.
822

###

# Test system: Mouse
# assay.procedure: Analgesia, Phenylbenzoquinone test (Writing), p.o. (Mouse)
# Type: in vivo
# experimental.parameters: po, Phenylbenzoquinone test
measurement.type: ED50

>>> result("C[C@@H]1[C@H]2OC[C@H]3[C@@H]1C[C@H](O)[C@@]3(C)O2")
"< 50 mg/kg"

Consider the compound `CNC(=O)O[C@H]1C[C@@H]2[C@H](C)[C@H]3OC[C@@H]2[C@]1(C)O3` and give its measured ED50.
< 50 mg/kg

Consider the compound COC1O[C@H]2O[C@]3(C)[C@@H](O)C[C@H]([C@H]2C)[C@H]13 (some centres unmarked) and give its measured ED50.
68 mg/kg

Consider the compound COC1O[C@H]2O[C@]3(C)[C@H](O)C[C@H]([C@H]2C)[C@H]13 (some centres unmarked) and give its measured ED50.
100 mg/kg

Consider the compound `C[C@@H]1[C@H]2OC[C@H]3[C@@H]1CC(=O)[C@@]3(C)O2` and give its measured ED50.
< 10 mg/kg

Consider the compound `CC(=O)O[C@H]1C[C@@H]2[C@H](C)[C@H]3OC[C@@H]2[C@]1(C)O3` and give its measured ED50.
< 50 mg/kg

Consider the compound `CNC(=O)O[C@@H]1C[C@@H]2[C@H](C)[C@H]3OC[C@@H]2[C@]1(C)O3` and give its measured ED50.
< 10 mg/kg

Consider the compound `C[C@@H]1[C@H]2OC[C@H]3[C@@H]1C[C@@H](O)[C@@]3(C)O2` and give its measured ED50.
< 10 mg/kg
